Reference source for all entries: PubChem BioAssay

# SYSTEM: Follistatin-related protein 3 (Homo sapiens) (UniProt O95633)
# Sequence (O95633 whole entry, looked up): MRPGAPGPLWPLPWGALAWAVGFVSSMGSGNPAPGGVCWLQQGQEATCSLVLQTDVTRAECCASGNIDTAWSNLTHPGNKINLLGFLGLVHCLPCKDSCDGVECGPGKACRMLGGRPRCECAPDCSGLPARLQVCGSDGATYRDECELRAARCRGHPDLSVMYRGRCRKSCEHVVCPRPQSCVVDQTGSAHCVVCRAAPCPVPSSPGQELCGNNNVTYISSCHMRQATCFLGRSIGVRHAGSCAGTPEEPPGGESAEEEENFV
# PROTOCOL DESCRIPTION: FSTL3 binders on small-molecule microarrays, primary screen, biochemical, small-molecule microarray, 635 nm fluorescence (AID 1105);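 note: score merges emission near 667 nm and signal to noise per printed spot across three slides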
# SETUP CONDITIONS: FSTL3 binding, higher = more signal
Reported composite z-score maps to class as: interval 1 = under 0.1, interval 2 = from 0.1 up to 0.4, interval 3 = 0.4 and over

# example entries with known answers
- MOLECULE: "CN(C)C(=O)[C@@]1(CCS(=O)(=O)c2ccccc2)N=C(c2ccc(OCCCO)cc2)O[C@H]1c1ccccc1N=[N+]=[N-]"
  CLASS: "interval 3"
- MOLECULE: "COCCn1c(C(=O)N2CCCC2)cc2c1C[C@H]1CN(C(=O)c3ccccc3)[C@@](Cc3ccccc3)(C(=O)OC)[C@@H]21"
  CLASS: "interval 2"
- MOLECULE: "CN1C(=O)[C@]2(CCC(=O)OC(C)(C)C)N=C(c3ccc(OCCCO)cc3)O[C@@H]2c2ccccc21"
  CLASS: "interval 3"

Q. Please report the category associated with C=CCC(OC(C)=O)[C@@H]1[C@@H](N(Cc2ccc(-c3ccccc3)cc2)C(=O)c2ccc(-c3ccccc3)cc2)c2cc(OCCCO)ccc2N1C(=O)c1ccc2ccccc2n1 (some centres undefined) , nothing else.
A. interval 2

Q. Please report the category associated with O=C1OCCC=C[C@H]2OC34C=CCN(c5ccc(Cl)cc5)C(=O)[C@H]3N(CCO)C(=O)[C@@H]4C12 (some centres undefined) , nothing else.
A. interval 1

Q. Please report the category associated with `Cc1ccc(S(=O)(=O)N2[C@@H](c3ccccc3)C(C(=O)O)=CC[C@H]2c2ccc(C#N)cc2)cc1` , nothing else.
A. interval 2

Q. Please report the category associated with `COCCOC(=O)N1C(=O)[C@@]2(c3cc(C#CC4(O)CCCCCC4)ccc31)[C@H](c1ccccc1OCCO)N1[C@H](c3ccccc3)[C@H](c3ccccc3)OC(=O)[C@H]1[C@@H]2C(=O)N1CCCCCCC1` , nothing else.
A. interval 3

Q. Please report the category associated with `COC(=O)[C@@]1(Cc2ccc(F)cc2)[C@H]2c3cc(C(=O)N(C)C)n(CCn4cc([N+](=O)[O-])nc4C)c3C[C@H]2CN1C(=O)c1ccccc1` , nothing else.
A. interval 1

---

# Tested on: Human papillomavirus type 1a protein E7 (residues 44-93)
# PROTOCOL DESCRIPTION: HPV1a E7 fragment binders on microarrays, primary screen, biochemical, small-molecule microarray, residues 44-93, 635 nm fluorescence (AID 1108);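 note: E7 fragment applied at 1 µg/mL in TBST for 1 h at 4 C; score combines spot fluorescence with its signal to noise ratio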
# SETUP CONDITIONS: small-molecule microarray binding, fluorescence 635 nm; higher = more signal
RESULT TYPE: composite z-score

- COMPOUND STRUCTURE: "NC(=O)NCC#Cc1ccc2c(c1)[C@]1(C(=O)N2)[C@H](C(=O)N2CCCCCCC2)[C@H]2C(=O)O[C@H](c3ccccc3)[C@H](c3ccccc3)N2[C@@H]1c1ccc(O)cc1"
  composite z-score: 0.0787
- COMPOUND STRUCTURE: "CC#CCO[Si](C#CCCCCCC)(C(C)C)C(C)C"
  composite z-score: -0.321
- COMPOUND STRUCTURE: "COCCOC(=O)N1C(=O)[C@@]2(c3cc(C#CCCO)ccc31)[C@H](c1ccc(O)cc1)N1[C@H](c3ccccc3)[C@H](c3ccccc3)OC(=O)[C@H]1[C@@H]2C(=O)N1CCc2cc(OC)c(OC)cc2C1"
  composite z-score: 1.41

Here's the next entry for you.
Human papillomavirus type 1a protein E7 (residues 44-93) assay, molecule `COc1ccc(CCNC(=O)[C@@]2(Sc3ccc(C)cc3)CC(=O)N(Cc3cc(C(F)(F)F)cc(C(F)(F)F)c3)[C@@H]2c2ccc(CO)cc2)cc1` , recorded composite z-score = -1.13
